Test system: E. multilocularis metacestodes
measurement_description: PGI assay: phosphoglucose isomerase release from damaged metacestodes
Assay type: cell-based, Echinococcus multilocularis
measurement_context: 10 μM, 5 days, single wells, relative to DB1127 (10 μM)
reported_property: PGI (% of DB1127 at 10 uM) (%)
State the answer as a number, implicitly in %.

Using the record for "COc1cccc(NC(=O)Cn2c(C)c(C#N)c3ccccc32)c1" , report its PGI (% of DB1127 at 10 uM).
-17.93

Using the record for "O=C(Nc1ccc(C23CC4CC(CC(c5ccccc5)(C4)C2)C3)cc1)c1cccs1" , report its PGI (% of DB1127 at 10 uM).
-11.28

Using the record for Cl.N=c1n(CCN2CCCCC2)c2ccccc2n1CC(O)c1cccc(Br)c1 (stereo not shown) , report its PGI (% of DB1127 at 10 uM).
-8.42

Using the record for COc1ccccc1N1CCN(C(CNS(=O)(=O)c2ccc(Cl)cc2)c2cccnc2)CC1 (stereo not shown) , report its PGI (% of DB1127 at 10 uM).
1.92

Using the record for "CCOC(=O)c1cn(CC)c2cc(N3CCCCC3)c(F)cc2c1=O" , report its PGI (% of DB1127 at 10 uM).
-20.29

Using the record for "CC(C)CNC(=O)c1c(N)n(CCc2ccccc2F)c2nc3ccccc3nc12" , report its PGI (% of DB1127 at 10 uM).
-10.23

Using the record for "O=C(Nc1ccc(F)c(Cl)c1)Nc1ccc(Cl)c(Cl)c1" , report its PGI (% of DB1127 at 10 uM).
213.83

Using the record for OC(CNC1CCCCC1)Cn1c2ccc(I)cc2c2cc(I)ccc21 (stereo not shown) , report its PGI (% of DB1127 at 10 uM).
54.36

Using the record for "O=C(Nc1ccc(CN2CCOCC2)cc1)c1ccc(-c2cc(Cl)ccc2Cl)o1" , report its PGI (% of DB1127 at 10 uM).
-24.05

Using the record for "CCN(CC)c1cc(C)c2cc(NC(=O)c3cccc(OC)c3)ccc2n1" , report its PGI (% of DB1127 at 10 uM).
4.05

Using the record for COc1ccc(C(=O)NC(c2ccc(Cl)cc2Cl)c2cc(Cl)c3cccnc3c2O)cc1 (stereo not shown) , report its PGI (% of DB1127 at 10 uM).
1.08

Using the record for "Cc1ccc(NC(=O)Nc2cccc(Cl)c2)cc1F" , report its PGI (% of DB1127 at 10 uM).
185.05

Using the record for CCCCCn1c(=N)n(CC(O)COc2cccc(C)c2)c2ccccc21.Cl (stereo not shown) , report its PGI (% of DB1127 at 10 uM).
66.85

Using the record for CCC(C)NCC(O)(c1ccc(Cl)cc1)c1ccc(Cl)cc1 (stereo not shown) , report its PGI (% of DB1127 at 10 uM).
-109.93

Using the record for CSC1=NC(=Nc2c(C)cccc2C)C2(CCC(C(C)(C)C)CC2)N1c1ccc(Cl)cc1 (stereo not shown) , report its PGI (% of DB1127 at 10 uM).
-70.72

Using the record for "O=C(NC1CCN(Cc2ccccc2)CC1)c1cc(-c2ccncc2)nc2ccc(Cl)cc12" , report its PGI (% of DB1127 at 10 uM).
-18.74

Using the record for CCCCCCOC(=O)C1=C(C)NC(=O)NC1c1ccccc1F (stereo not shown) , report its PGI (% of DB1127 at 10 uM).
-24.58

Using the record for CCOc1cc2c(cc1OCC)C(c1cc(C)c(O)c(C)c1)NCC2.Cl (stereo not shown) , report its PGI (% of DB1127 at 10 uM).
-22.26

Using the record for "CNCCCNc1ccnc2cc(Cl)ccc12" , report its PGI (% of DB1127 at 10 uM).
-31.62

Data origin: paper PMC4788259
